# measured target: Human immunodeficiency virus type 1 reverse transcriptase (Human immunodeficiency virus 1, UniProt Q72547)
value kind: Kd (µM)

Reference set, count: 5
[
  {
    "item smiles": "CC(=O)c1ccccc1OCC(=O)Nc1ccccc1C",
    "Kd [µM]": 800
  },
  {
    "item smiles": "Cc1ccccc1OCC(=O)Nc1ccc(S(N)(=O)=O)cc1",
    "Kd [µM]": 1100
  },
  {
    "item smiles": "NC(=S)NCCc1ccccc1",
    "Kd [µM]": 700
  },
  {
    "item smiles": "S=C(NCCc1ccccc1)Nc1ccc(Br)cn1",
    "Kd [µM]": 2
  },
  {
    "item smiles": "NS(=O)(=O)c1ccc(NC(=O)CSc2nncn2-c2ccccc2)cc1",
    "Kd [µM]": 1300
  }
]

[a] O=C(CSc1nncn1-c1ccccc1)Nc1ccccc1
[b] NS(=O)(=O)c1ccc(NC(=O)COc2ccc(Cl)cc2)cc1
[ask] Lower value of Kd belongs to which: a or b ? Lab log: write the label of the selected item as the result.
[reply] b
(b: 30 µM, a: 1700 µM)

----------
# measured target: UniProtKB Q72547
# run description: Inhibition of HIV1 reverse transcriptase
value kind: IC50 (nM)
Number only, in nM; omit the unit.

[ask] Suppose we examine the compound Cc1cc(S(N)(=O)=O)ccc1NC(=O)COc1ccc(Cl)cc1C(=O)c1cc(F)cc(C(F)(F)F)c1 ; what IC50 value has been reported?
[reply] 1.4

----------
Let's go through some recorded pKd values for Human immunodeficiency virus type 1 reverse transcriptase (Human immunodeficiency virus 1) together.
pKd: −log10 of the molar value.
value kind: pKd

[
  {
    "item smiles": "NS(=O)(=O)c1ccc(NC(=O)CSc2nc[nH]n2)cc1",
    "measured target": "Human immunodeficiency virus type 1 reverse transcriptase (Human immunodeficiency virus 1)",
    "pKd": 2.80
  }
]

[I] Cc1ccc(-n2cnnc2SCC(=O)Nc2ccccc2)cc1
[II] S=C(NCCc1ccccc1)Nc1ccccn1
[ask] Lower value of pKd belongs to which: I or II ? Lab log: write the label of the selected item as the result.
[reply] I
(I: 3.10, II: 5.22)
